# ASSAY NOTES: physchem
# MEASUREMENT PARAMETERS: 1-octanol/aqueous buffer, pH 7.4
# Description: 1-octanol/aqueous buffer partition coefficient, log D of the compound at pH 7.4 by UV-vis/HPLC method
ASSAY METRIC: logD
Write the number on its own, no unit after it.

Past entries and their recorded results:
COCCCCn1c(C(=O)N(CC(C)C)[C@@H]2CNC[C@H](C(=O)N3CCOCC3)C2)ccc1-c1ccccc1	3.08
COCCCCn1c(C(=O)N(CC(C)C)[C@H]2CCCNC2)nc2ccccc21	2
COCCCCn1nc(C(C)(C)C)cc1C(=O)N(CC(C)C)[C@@H]1CNC[C@H](C(=O)N2CCOCC2)C1	2.73
CCn1c(C(=O)N(CC(C)C)[C@@H]2CNC[C@H](C(=O)N3CCOCC3)C2)nc2ccccc21	1.79

Query: Output measured logD for this item: CCn1c(C(=O)N(CC(C)C)[C@@H]2CNC[C@H](CO)C2)nc2ccccc21
Response: 1.73

Query: Output measured logD for this item: COCCCOc1nc(C(C)(C)C)ncc1C(=O)N(CC(C)C)[C@@H]1CNC[C@H](C(=O)N2CCOCC2)C1
Response: 2.81

Query: Output measured logD for this item: COCCCCn1c(C(=O)N(CC(C)C)[C@@H]2CNC[C@H](C(=O)N3CCOCC3)C2)cnc1-c1ccccc1
Response: 2.03

Query: Output measured logD for this item: COCCCCc1c(C(=O)N(CC(C)C)[C@@H]2CNC[C@H](C(=O)N3CCOCC3)C2)nc2ccccn12
Response: 1.54
